- target of assay: Canine_OSMR_hlgG1_Fc (canine)
- Sequence (chain, as listed by the source limits assumed, form in doubt): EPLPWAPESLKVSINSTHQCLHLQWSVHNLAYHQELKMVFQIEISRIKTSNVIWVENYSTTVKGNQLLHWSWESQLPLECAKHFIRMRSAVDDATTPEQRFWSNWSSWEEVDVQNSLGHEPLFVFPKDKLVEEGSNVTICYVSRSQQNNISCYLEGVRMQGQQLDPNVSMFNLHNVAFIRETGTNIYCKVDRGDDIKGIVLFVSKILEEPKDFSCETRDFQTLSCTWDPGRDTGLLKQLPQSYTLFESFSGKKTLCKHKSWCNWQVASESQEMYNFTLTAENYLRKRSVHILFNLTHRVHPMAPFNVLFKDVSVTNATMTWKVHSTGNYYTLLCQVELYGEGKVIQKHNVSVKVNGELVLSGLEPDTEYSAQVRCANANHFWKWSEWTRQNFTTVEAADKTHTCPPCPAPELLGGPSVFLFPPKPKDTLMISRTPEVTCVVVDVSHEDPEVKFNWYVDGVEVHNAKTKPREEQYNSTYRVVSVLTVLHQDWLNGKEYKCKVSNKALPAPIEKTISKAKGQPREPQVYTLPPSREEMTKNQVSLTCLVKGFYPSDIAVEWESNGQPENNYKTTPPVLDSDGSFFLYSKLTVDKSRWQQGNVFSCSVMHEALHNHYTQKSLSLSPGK
- assay procedure: SPR Biacore
readout kind: koff (s⁻¹)
Numeric only. Scale: s⁻¹

Could you tell me which koff is on file for Mu_10F07_VL (SEQ ID NO: 41)_L33A (antibody, V domains shown) VH: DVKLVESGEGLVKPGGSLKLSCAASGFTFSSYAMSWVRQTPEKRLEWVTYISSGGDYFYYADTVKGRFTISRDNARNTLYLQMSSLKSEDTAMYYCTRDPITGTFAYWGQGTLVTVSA VL: DIQMTQTTSSLSASLGDRVTISCRASQDITNYANWYQQKPDGTVKLLIYYTSTLHSGVPSRFSGSGSGTDFSLTISNLEQEDIATYFCQQGHMLPWTFGGGTKLEIKR ? 0.000222

Could you tell me which koff is on file for Mu_10F07_VH (SEQ ID NO: 39)_Y107A (antibody, V domains shown) VH: DVKLVESGEGLVKPGGSLKLSCAASGFTFSSYAMSWVRQTPEKRLEWVTYISSGGDYFYYADTVKGRFTISRDNARNTLYLQMSSLKSEDTAMYYCTRDPITGTFAAWGQGTLVTVSA VL: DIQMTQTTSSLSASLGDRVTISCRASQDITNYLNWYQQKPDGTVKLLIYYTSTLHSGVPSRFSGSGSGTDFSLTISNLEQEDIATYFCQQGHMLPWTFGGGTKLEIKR ? 6.76e-05
